Literature compilation of IC50 measurements on UniProtKB O60674.

As a guide, the following entries are already answered.
CCS(=O)(=O)N1CC(CC#N)(n2cc(-c3nc(Nc4cnn(C5COC5)c4)nc4ccsc34)cn2)C1: < 50 nM
C[C@H](O)C(=O)N1CC[C@H](Oc2ccc(-c3ncnc(Nc4ccc(O[C@H]5CCN(C6COC6)C[C@H]5F)cc4)n3)cc2C#N)[C@H](F)C1: ≥ 1000 nM
CC(C)(C)OC(=O)NC12CC(n3cnc4cnc5[nH]ccc5c43)(C1)C2: 472 nM
Cc1csc(NC(=O)N2CCC(N3CC(CC#N)(n4cc(-c5ncnc6[nH]ccc56)cn4)C3)CC2)n1: 10 to 50 nM
CCC(=O)c1cnc(Nc2ccn([C@H]3C[C@H](C#N)C3)n2)cc1Nc1cccc(-c2ncn(C)n2)c1OC: ≥ 500 nM

With UniProtKB O60674 as the test system, CCC(CO)n1cc(-c2nc(-c3cnn(C)c3)cn3nccc23)cn1 (stereo not shown) showed IC50 of 1000 to 10000 nM

The measured IC50 that O=C(NC(CO)CC(F)(F)F)c1noc2c1CN(c1ncnc3[nH]ccc13)CC2 (stereo not shown) showed for UniProtKB O60674 is < 100 nM
